Data provenance is ChEMBL document CHEMBL1128813.

# assay-info: Inhibitory activity against Beta-glucosidase from Yeast
# Set-up: species or system Saccharomyces cerevisiae
endpoint: Ki (µM)
Write the value in µM as a bare number.

Need Ki, item O=[N+]([O-])c1ccc(O/N=C2\OC(CO)C(O)C(O)C2O)c([N+](=O)[O-])c1 (stereo unspecified)
2.5
